B1: SOAT1 (parent)
chain: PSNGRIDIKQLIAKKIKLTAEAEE

# Variants of: B1
# assayDetails: protein stability index of a GFP-peptide fusion (GPS, HEK-293T) (PSI 1-6); higher = more stable;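 note: lentivirally expressed fusions sorted by FACS into six bins by GFP to DsRed ratio, PSI derived from sequencing read proportions per bin multiplied by bin number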
# conditionParameters: c terminus: a fixed tail appended
Reported protein stability index values for the following variants.
Answer field: number only, no words.

Sample records with protein stability index:
PSNGRRDIKQLIAKKIKLTAEAEE [I6R] | 3.4
PSNGRIDIKFLIAKKIKLTAEAEE [Q10F] | 2.65
PSNGRIDIKQLIAYKIKLTAEAEE [K14Y] | 2.62
PSNGRIDIKQLIIKKIKLTAEAEE [A13I] | 3.3
PSNGRIDIKKLIAKKIKLTAEAEE [Q10K] | 3.3

// query Find the recorded protein stability index belonging to PSNGRIDIKQLIAKKIKLTAWAEE [E21W] and report it.
// result 2.12

// query protein stability index lookup needed for PSNGRIDIKQMIAKKIKLTAEAEE [L11M] , thanks.
// result 3.22

// query Recorded protein stability index for PSNGRIDIKQLIAKKIKLTAEEEE [A22E] , please?
// result 3.93

Data provenance: the supplement of paper PMC10567573
